target: MRGPRX4 (Homo sapiens); assay: MRGPRX4 activation, Fluo-8 Ca2+ FLIPR assay in HEK293T cells stably expressing MRGPRX4; assay type: cell-based; conditions: E3-9, Conc. (Log[M]) −7.3
Sequence (Q96LA9 whole entry): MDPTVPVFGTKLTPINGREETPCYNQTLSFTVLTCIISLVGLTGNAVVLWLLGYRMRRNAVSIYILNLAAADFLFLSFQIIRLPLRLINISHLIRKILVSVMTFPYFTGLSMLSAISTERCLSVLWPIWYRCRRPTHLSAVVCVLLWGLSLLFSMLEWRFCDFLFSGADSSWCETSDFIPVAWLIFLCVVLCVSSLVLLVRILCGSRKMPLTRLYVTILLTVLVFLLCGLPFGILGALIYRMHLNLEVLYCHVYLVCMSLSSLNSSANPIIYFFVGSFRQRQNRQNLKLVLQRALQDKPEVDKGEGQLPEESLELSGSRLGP
ENDPOINT LABEL: MRGPRX4 activation, Average
Form field (numeric): enter value without unit.

// MRGPRX4 activation, Average (MRGPRX4 (Homo sapiens)) for `CC[C@H]1[C@@H](O)[C@@H]2[C@H](CC[C@]3(C)[C@@H]([C@H](C)CCNC(=O)C(=O)NS(=O)(=O)c4cccs4)CC[C@@H]23)[C@@]2(C)CCCC[C@@H]12` = 0.008

Summary: `CC[C@H]1[C@@H](O)[C@@H]2[C@H](CC[C@]3(C)[C@@H]([C@H](C)CCN=C=S)CC[C@@H]23)[C@@]2(C)CCC(F)(F)C[C@@H]12` , MRGPRX4 (Homo sapiens), MRGPRX4 activation, Average = 0.013

MRGPRX4 activation, Average on MRGPRX4 (Homo sapiens) for `CC[C@H]1[C@@H](O)[C@@H]2[C@H](CC[C@]3(C)[C@@H]([C@H](C)CCNC(=O)C(=O)NS(=O)(=O)c4cc(F)ccc4F)CC[C@@H]23)[C@@]2(C)CCCC[C@@H]12` is 0.016

----------
target: MRGPRX4 (Homo sapiens); assay: MRGPRX4 activation, Fluo-8 Ca2+ FLIPR assay in HEK293T cells stably expressing MRGPRX4; type: cell-based; settings: Conc. (Log[M]) −6.4
ENDPOINT LABEL: MRGPRX4 activation, fluorescence change (dF/F0), Average
No unit in the answer, only the number.

Field MRGPRX4 activation, fluorescence change (dF/F0), Average (entry `CC[C@H]1[C@@H](O)[C@@H]2[C@H](CC[C@]3(C)[C@@H]([C@H](C)CCNC(=O)NS(=O)(=O)c4ccc(C(C)(C)C#N)cc4)CC[C@@H]23)[C@@]2(C)CCCC[C@@H]12` ) reads 0.018

GET /value?item= `CC[C@H]1[C@@H](O)[C@@H]2[C@H](CC[C@]3(C)[C@@H]([C@H](C)CCNC(=O)NS(=O)(=O)c4ccc(C5(CO)CCCC5)cc4)CC[C@@H]23)[C@@]2(C)CCCC[C@@H]12` &field=MRGPRX4 activation, fluorescence change (dF/F0), Average returns 0.016

Recorded MRGPRX4 activation, fluorescence change (dF/F0), Average (compound `CC[C@H]1[C@@H](O)[C@@H]2[C@H](CC[C@]3(C)[C@@H]([C@H](C)CCNC(=O)NS(=O)(=O)c4cc(F)cc(F)c4)CC[C@@H]23)[C@@]2(C)CCCC[C@@H]12` ): 0.013

Record `CC[C@H]1[C@@H](O)[C@@H]2[C@H](CC[C@]3(C)[C@@H]([C@H](C)CCNC(=O)NS(=O)(=O)c4ccc(C(C)(C)C(N)=O)cc4)CC[C@@H]23)[C@@]2(C)CCCC[C@@H]12` , field MRGPRX4 activation, fluorescence change (dF/F0), Average: 0.013

For `CC[C@H]1[C@@H](O)[C@@H]2[C@H](CC[C@]3(C)[C@@H]([C@H](C)CCNC(=O)NS(=O)(=O)c4ccc(C(C)(CO)CO)cc4)CC[C@@H]23)[C@@]2(C)CCCC[C@@H]12` the compound record lists MRGPRX4 activation, fluorescence change (dF/F0), Average as 0.016

The reported value for `CC[C@H]1[C@@H](O)[C@@H]2[C@H](CC[C@]3(C)[C@@H]([C@H](C)CCNC(=O)NS(=O)(=O)c4ccc(C(C)(C)CN)cc4)CC[C@@H]23)[C@@]2(C)CCCC[C@@H]12` in terms of MRGPRX4 activation, fluorescence change (dF/F0), Average is 0.021
